target or system: human Cereblon WT GST-tagged protein (Homo sapiens)
Construct: purchased CISBIO 64BDCRBNPEH
Sequence (Q96SW2 whole entry): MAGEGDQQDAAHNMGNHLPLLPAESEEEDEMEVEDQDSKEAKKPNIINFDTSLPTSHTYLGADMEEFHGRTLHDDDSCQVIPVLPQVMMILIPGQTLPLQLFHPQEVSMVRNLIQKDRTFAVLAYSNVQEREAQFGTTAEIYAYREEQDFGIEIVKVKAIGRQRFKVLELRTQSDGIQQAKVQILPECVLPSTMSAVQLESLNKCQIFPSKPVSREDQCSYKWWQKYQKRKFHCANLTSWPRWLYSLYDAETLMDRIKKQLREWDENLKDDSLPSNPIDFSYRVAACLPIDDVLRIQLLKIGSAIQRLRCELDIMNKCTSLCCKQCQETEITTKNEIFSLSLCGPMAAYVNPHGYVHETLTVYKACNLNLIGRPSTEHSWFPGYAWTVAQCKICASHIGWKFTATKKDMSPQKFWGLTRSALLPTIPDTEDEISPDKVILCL
assay method text: CRBN binding, HTRF CEREBLON BINDING kit
condition set: CRBN binding, HTRF CEREBLON BINDING kit
Procedure: The CEREBLON BINDING kits (specification: 10,000 tests; product number: Catalog #64BDCRBNPEH; CISBIO company) was used to determine the CRBN binding ability of the compounds to be tested through a HTRF method (homogeneous time-resolved fluorescence). […] After sealing and incubating the solutions in the aforementioned wells at room temperature for 3 hours, the absorbance values at emission wavelengths of 620 nm and 665 nm were detected by the HTRF method using a Spark microplate reader (V3.1 SP1). […]

- compound: "CCc1cc2c(cc1N1CCC(N3CCN(Cc4ccc(N5CCC(=O)NC5=O)cc4)CC3)CC1)C(C)(C)c1[nH]c3cc(C#N)ccc3c1C2=O"
  IC50: "500 to 1000 nM"
- compound: "CN(Cc1cccc(NC2CCC(=O)NC2=O)c1)C1CCN(c2ccc(Nc3ncc4nc(Nc5ccccc5)n(C5CCCC5)c4n3)cc2)CC1 (stereo not drawn)"
  IC50: "1000 to 1900 nM"
- compound: "Cc1cc(Nc2ncc(Cl)c(Nc3ccccc3S(=O)(=O)C(C)C)n2)c(OC(C)C)cc1C1CCN(Cc2cccc(N3CCC(=O)NC3=O)c2)CC1"
  IC50: "500 to 1000 nM"
- compound: "O=C1CCN(c2ccc(CN3C[C@@H]4C[C@H]3CN4c3ccc(-c4cc(F)c5c(c4)C(=O)N(C(C(=O)Nc4nccs4)c4ncn6c4CCC6)C5)cc3)nc2)C(=O)N1 (stereo partly drawn)"
  IC50: "500 to 1000 nM"
- compound: "CN1CCN([C@@H]2CCCN(c3cnc(C(N)=O)c(Nc4ccc(C5CCN(Cc6cccc(NC7CCC(=O)NC7=O)c6)CC5)cc4)n3)C2)C1=O (stereo partly drawn)"
  IC50: "1000 to 1900 nM"
- compound: "COc1cc(N2CCC(N3CCN(Cc4cccc(N5CCC(=O)NC5=O)c4)CC3)CC2)c(C)cc1Nc1ncc(Br)c(Nc2ccc3nccnc3c2P(C)(C)=O)n1"
  IC50: "1000 to 1900 nM"

Cited source: patent US20260274829A1
